# assay.conditions: human, in vivo, 15 mg, Cmax, ponatinib 15 mg alone; geometric mean (%CV, n)
readout.name: Cmax
Could you kindly put the unit after your number?

According to the records, this compound "Cc1ccc(C(=O)Nc2ccc(CN3CCN(C)CC3)c(C(F)(F)F)c2)cc1C#Cc1cnc2cccnn12" displays Cmax of 16.1 ng/mL

====

# assay.conditions: human, in vivo, 15 mg
readout.name: half-life (h)
Give just the numeric value; h need not be written.

According to the records, this compound Cc1ccc(C(=O)Nc2ccc(CN3CCN(C)CC3)c(C(F)(F)F)c2)cc1C#Cc1cnc2cccnn12 [Ponatinib] displays half-life of 35.3
